system: Staphylococcus aureus; experiment: Antibacterial activity Staphylococcus aureus […] after 16 to 20 hr by broth microdilution method; assay type: functional
Please note: MIC exactly at 400 µg/mL is criterion not met. Only values below 400 µg/mL get criterion met.

[
  {
    "smiles entry": "O=[N+]([O-])c1cccc(N2Cc3ccccc3OCC2=S)c1",
    "assigned category": "criterion met"
  },
  {
    "smiles entry": "S=C1COc2ccccc2CN1c1ccccc1",
    "assigned category": "criterion not met"
  },
  {
    "smiles entry": "Fc1ccc(N2Cc3ccccc3OCC2=S)cc1",
    "assigned category": "criterion not met"
  },
  {
    "smiles entry": "O=C(O)c1cn(C2CC2)c2cc(N3CCNCC3)c(F)cc2c1=O",
    "assigned category": "criterion met"
  },
  {
    "smiles entry": "Cc1ccc(N2Cc3ccccc3OCC2=S)cc1",
    "assigned category": "criterion met"
  },
  {
    "smiles entry": "Cc1cccc(N2Cc3ccccc3OCC2=S)c1",
    "assigned category": "criterion not met"
  },
  {
    "smiles entry": "COc1cccc(N2Cc3ccccc3OCC2=S)c1",
    "assigned category": "criterion met"
  },
  {
    "smiles entry": "CC1(C)S[C@@H]2[C@H](NC(=O)[C@H](N)c3ccccc3)C(=O)N2[C@H]1C(=O)O",
    "assigned category": "criterion met"
  },
  {
    "smiles entry": "O=[N+]([O-])c1ccc(N2Cc3ccccc3OCC2=S)cc1",
    "assigned category": "criterion not met"
  }
]

Hello, is MIC of the following compound strictly smaller than 400 µg/mL? S=C1COc2ccccc2CN1c1ccc(Br)cc1
criterion met

---

Overview of reported MIC across a group of compounds:
test system: Enterococcus faecalis; experiment: Antibacterial activity Enterococcus faecalis ATCC 29212 after 16 to 20 hr by broth microdilution method; assay type: functional
Your reply should be a number followed by the unit it is expressed in.

Solved entries:
[
  {
    "smiles entry": "FC(F)(F)c1cccc(N2Cc3ccccc3OCC2=S)c1",
    "MIC": "25 µg/mL"
  },
  {
    "smiles entry": "O=[N+]([O-])c1ccc(N2Cc3ccccc3OCC2=S)cc1",
    "MIC": "50 µg/mL"
  },
  {
    "smiles entry": "S=C1COc2ccccc2CN1c1ccc(Cl)cc1",
    "MIC": "25 µg/mL"
  }
]

// Input: S=C1COc2ccccc2CN1c1cccc(Cl)c1 . Output its MIC only.
100 µg/mL

---

Collected MIC values appear next to each entry.
test system: Pseudomonas aeruginosa; assay: Antibacterial activity Pseudomonas aeruginosa ATCC 27853 after 16 to 20 hr by broth microdilution method; type: functional
Answer format: numeric, µg/mL implied, no suffix.

Fetch value of MIC on Pseudomonas aeruginosa for S=C1COc2ccccc2CN1c1ccc(Cl)cc1 .
100

Please look at S=C1COc2ccccc2CN1c1ccc(I)cc1 and tell me its recorded MIC on Pseudomonas aeruginosa.
50

Name the recorded MIC of S=C1COc2ccccc2CN1c1ccccc1 , assay system Pseudomonas aeruginosa.
100

For Pseudomonas aeruginosa, give MIC of the listed molecule: COc1ccc(N2Cc3ccccc3OCC2=S)cc1
100

# lookup: Pseudomonas aeruginosa MIC, key = Fc1ccc(N2Cc3ccccc3OCC2=S)cc1
100

System Pseudomonas aeruginosa. Read-out MIC. Item CN(C)c1ccc(N2Cc3ccccc3OCC2=S)cc1 . Report value.
100

Report MIC from Pseudomonas aeruginosa testing of COc1cccc(N2Cc3ccccc3OCC2=S)c1
50

Answer briefly: MIC recorded on Pseudomonas aeruginosa for O=[N+]([O-])c1ccc(N2Cc3ccccc3OCC2=S)cc1
50
